Source: paper PMC11373361

Target: WWP1-L34H (Homo sapiens)
Construct: WWP1- 2,3-linker-WW3-WW4-HECT (WWP1-L34H); made in house; host or cells: E. coli BL21-CodonPlus RP (plasmid pET32a-WWP1-L34H, gifted by Dr Wenyu Wen)
Sequence (Q9H0M0 415-922, stated change not applied): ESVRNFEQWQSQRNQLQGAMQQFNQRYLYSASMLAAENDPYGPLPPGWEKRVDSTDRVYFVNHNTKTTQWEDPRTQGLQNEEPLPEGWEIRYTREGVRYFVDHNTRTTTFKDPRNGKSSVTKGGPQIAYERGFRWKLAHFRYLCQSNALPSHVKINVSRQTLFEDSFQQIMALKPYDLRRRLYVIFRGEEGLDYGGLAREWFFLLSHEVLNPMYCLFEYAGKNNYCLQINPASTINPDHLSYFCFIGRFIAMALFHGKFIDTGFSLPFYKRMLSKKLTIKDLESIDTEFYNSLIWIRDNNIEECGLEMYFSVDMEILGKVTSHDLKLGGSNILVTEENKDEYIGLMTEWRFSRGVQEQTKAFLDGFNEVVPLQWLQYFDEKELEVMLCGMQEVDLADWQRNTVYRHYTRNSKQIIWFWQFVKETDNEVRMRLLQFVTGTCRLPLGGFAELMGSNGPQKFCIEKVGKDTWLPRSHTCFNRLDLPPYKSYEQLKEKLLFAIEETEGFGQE
Assay: WWP1 ELISA autoubiquitination assay
Type: biochemical
Conditions: synthesised compound; WWP1-L34H; 1% DMSO; 95% CI range in brackets
Listed molecules paired with reported pIC50
# reply with the number alone; pIC50 is -log10 of concentration in mol/L

smiles_str=O=C(O)CSc1nc2nc(Cl)c(Cl)nc2[nH]1 observed_measurement=3.43

Request the reported pIC50 associated with CCOC(=O)CSc1nc2nc(Cl)c(Cl)nc2[nH]1 3.80
